Target: Pro-neuregulin-1, membrane-bound isoform (Homo sapiens) (UniProt Q02297)
Sequence (Q02297 whole entry, looked up, canonical isoform): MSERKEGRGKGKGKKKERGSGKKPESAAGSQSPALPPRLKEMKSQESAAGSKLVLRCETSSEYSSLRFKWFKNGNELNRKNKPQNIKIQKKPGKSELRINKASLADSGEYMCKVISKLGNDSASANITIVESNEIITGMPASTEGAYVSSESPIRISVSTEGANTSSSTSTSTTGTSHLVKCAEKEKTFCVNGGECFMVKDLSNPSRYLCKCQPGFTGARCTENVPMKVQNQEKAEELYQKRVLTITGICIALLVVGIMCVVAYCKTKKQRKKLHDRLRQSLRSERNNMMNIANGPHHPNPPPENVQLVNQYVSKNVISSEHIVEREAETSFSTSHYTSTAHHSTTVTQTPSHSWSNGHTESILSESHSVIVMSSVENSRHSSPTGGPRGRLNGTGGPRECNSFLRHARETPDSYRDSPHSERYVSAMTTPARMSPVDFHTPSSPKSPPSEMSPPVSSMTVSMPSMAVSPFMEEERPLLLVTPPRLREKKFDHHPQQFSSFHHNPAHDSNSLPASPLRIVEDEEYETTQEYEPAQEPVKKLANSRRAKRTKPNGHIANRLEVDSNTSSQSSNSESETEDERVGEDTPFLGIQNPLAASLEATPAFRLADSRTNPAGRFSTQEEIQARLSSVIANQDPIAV
Experiment: NRG1 binders on small-molecule microarrays, primary screen, psychiatric disease protein project, biochemical, small-molecule microarray, fluorescence 635/667 (AID 1075);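 further: score combines 667 nm spot fluorescence with signal to noise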
Settings: NRG1 binding, 635 nm fluorescence, higher = more signal
If the reported composite z-score equals or exceeds 1, assign YES. If not, assign NO.

compound=COC(=O)[C@@]1(Cc2ccccc2)[C@H]2c3cc(C(=O)N4CCCC4)n(Cc4ccc(S(C)(=O)=O)cc4)c3C[C@H]2CN1C(=O)c1ccccc1 group=YES
compound=O=C1C[C@@](C(=O)NC2CC2)(c2ccc([N+](=O)[O-])cc2)[C@@H](c2ccc(CO)cc2I)N1C1CCCCC1 group=YES
compound=CCCC[C@@H]1C[C@H]1[C@@H](NC(=O)c1ccco1)c1ccc(-c2ccccc2)cc1 group=NO
compound=NC(=O)NCC#Cc1ccc2c(c1)[C@]1(C(=O)N2)[C@H](C(N)=O)[C@H]2C(=O)O[C@H](c3ccccc3)[C@H](c3ccccc3)N2[C@@H]1c1ccc(O)cc1 group=YES
compound=COc1ccc([Si](C)(C)[C@H]2[C@H](CC(=O)N3Cc4ccccc4C[C@H]3CO)O[C@@]3(C(=O)N(Cc4cccc(N5CCC5=O)c4)c4ccccc43)[C@@H]2C)cc1 group=NO
compound=C[N+](C)(C)CCCC[C@@H]1NC(=O)[C@H]2C[C@@H](C(=O)NCCCCCCNC(=O)CS)[C@@H](c3cccc(OCCO)c3)N2C1=O group=NO
compound=O=C1O[C@@H](c2ccccc2)[C@@H](c2ccccc2)N2[C@@H](c3ccccc3OCCO)[C@]3(C(=O)Nc4ccc(C#CC5=CCCCC5)cc43)[C@@H](C(=O)N3CCCCCCC3)[C@H]12 group=YES
compound=COc1ccc(CCNC(=O)[C@@]2(Sc3ccc(C)cc3)CC(=O)N(C(C)C)[C@@H]2c2ccc(CO)cc2I)cc1 group=NO
compound=C=C(CCCC)/C(=C/C[C@@H](OC(C)=O)c1ccc(OCCO)cc1)c1cnc2ccccc2c1 group=NO
compound=CO[C@H]1O[C@H](CO)[C@@H](OC(=O)Nc2ccc(C(F)(F)F)cc2)[C@H](OC(=O)Nc2ccc3c(c2)OCO3)[C@@H]1OC(=O)Nc1ccc2c(c1)OCO2 group=YES
compound=O=C1C[C@@](C(=O)NCC(F)(F)F)(c2ccc([N+](=O)[O-])cc2)[C@@H](c2ccc(CO)cc2I)N1C1CCCCC1 group=NO
compound=C=CC(=C)[C@H]1Oc2ccccc2S(=O)(=O)N2CCC[C@@H]12 group=NO
compound=COc1ccccc1CN1C(=O)c2ccccc2[C@@]2(Cc3ccccc3N(CC(C)C)C2=O)[C@@H]1c1ccc(CO)cc1 group=NO
compound=COc1ccc(C(=O)Nc2ccc(CN3C(=O)[C@]4(O[C@H](CCO)[C@@H]([Si](C)(C)c5ccc(OC)cc5)[C@@H]4C)c4ccccc43)cc2)cc1 group=NO
compound="C=CC1(C(=O)OC)CC=C(C(=O)OC)CC1 (centres undefined)" group=YES
compound=COCC(=C=CC[C@@H](O)c1cccc(OCCO)c1)C[C@@H](O)c1ccccn1 group=YES
compound=CCS[C@H]1[C@@H](C(=O)O)[C@H](c2ccc(C)cc2)N(S(=O)(=O)c2ccc(C)cc2)[C@@H]1CC group=YES
compound="O=C1C2C=CC(C(O)c3cccc4ccccc34)N(Nc3ccccc3F)C2C(=O)N1c1ccccc1 (centres undefined)" group=YES
compound=COC(=O)[C@@]1(Cc2ccccc2)[C@H]2c3cc(C(=O)N(C)C)n(Cc4ccsc4Br)c3C[C@H]2CN1C(=O)c1ccccc1 group=NO

====

Biological target: Torsin-1A (Homo sapiens)
Test: torsin A binders from cell lysate, primary screen, small-molecule microarray, wild-type, 635/667 nm (AID 1149)
Details: COS7 hTOR1A-WT lysate, 635 nm fluorescence, higher = more signal
// label = satisfied if composite z-score is not less than 0.2, otherwise not satisfied

molecule=COc1ccc(C#Cc2ccc3c(c2)[C@]2(C(=O)N3)[C@H](C(=O)NC[C@H](O)c3ccccc3)[C@H]3C(=O)O[C@H](c4ccccc4)[C@H](c4ccccc4)N3[C@@H]2c2ccc(O)cc2)cc1 group="not satisfied"
molecule=COc1ccc(C#Cc2ccc3c(c2)[C@]2(C(=O)N3)[C@H](c3ccccc3OCCO)N3[C@H](c4ccccc4)[C@H](c4ccccc4)OC(=O)[C@H]3[C@@H]2C(=O)Nc2nc3ccccc3s2)cc1 group="not satisfied"
molecule=COC(=O)[C@@]1(Cc2ccc(F)cc2)[C@H]2c3cc(C(=O)N4CCCC4)n(Cc4ccc(S(C)(=O)=O)cc4)c3C[C@H]2CN1C(=O)c1ccccc1 group="not satisfied"
molecule="O=C1C2C=CC(C(O)Cc3ccccc3)N(n3cnnc3)C2C(=O)N1Cc1ccccc1 (configuration not stated)" group="not satisfied"
molecule="CN1C(=O)C2C=CC(C(O)C#Cc3ccccc3)N(N3CCCCC3)C2C1=O (configuration not stated)" group=satisfied
molecule="CCCCCN1CC=CC23O[C@@H]4/C=C\\CCC(C)OC(=O)C4[C@H]2C(=O)N(C(C)CO)[C@@H]3C1=O (some centres not stated)" group="not satisfied"
molecule=CCCC[C@@H]1C[C@H]1[C@@H](NC(=O)c1ccco1)c1ccccc1C(F)(F)F group=satisfied

====

Test system: Neuregulin-1 EGF-like domain
Assay: binders of neuregulin-1 EGF-like domain, primary screen, biochemical, small-molecule microarray, 635 nm fluorescence (AID 1081);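 further: binding of the protein to compounds printed on small-molecule microarray slides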
Conditions: small-molecule microarray binding, higher = more signal
Reported composite z-score is given for each of the following compounds.
QUANTITY NAME: composite z-score

compound=O=C1O[C@@H](c2ccccc2)[C@@H](c2ccccc2)N2[C@@H](c3ccccc3OCCO)[C@]3(C(=O)Nc4ccc(C#CC5=CCCCC5)cc43)[C@@H](C(=O)N3CCCCCCC3)[C@H]12 reading=1.07
compound=COC(=O)[C@@]1(Cc2ccc(OC)cc2)[C@H]2c3cc(C(=O)N(C)C)n(C)c3C[C@H]2CN1C(=O)c1ccccc1 reading=1.18
compound=C[N+](C)(C)CCCCNC(=O)[C@H]1C[C@H]2C(=O)N3CCC[C@H]3C(=O)N2[C@H]1c1cccc(OCCO)c1 reading=0.807
compound="CC1(C)C2C=C(C(O)C3C=CC4C(=O)NC(=O)C4N3Nc3ccc(Cl)cc3Cl)C[C@@H]1C2 (some centres undefined)" reading=0.867

====

Assay: basal HepG2 mitochondrial membrane potential changes, profiling panel, cell-based, JC-1 fluorescence, 24 h, 100 nL compound (AID 1167); further: test concentration not given here
Conditions: higher = more signal
QUANTITY NAME: z-score

molecule=CCOC(=O)C[C@H]1[C@H](OC(=O)c2ccc(C(=O)c3ccccc3)cc2)[C@@H](NC(=O)CC(C)C)c2cc(OCCCO)ccc2N1C(=O)c1ccc2ccccc2n1 quantity_name=z-score reading=2.53
molecule="C=CCC(OC(C)=O)[C@@H]1[C@@H](N(Cc2ccc(-c3cccc(C(F)(F)F)c3)o2)C(=O)c2ccc(C)cc2)c2cc(OCCCO)ccc2N1C(=O)Cc1ccc2ccccc2c1 (stereo not given in full)" quantity_name=z-score reading=2.75
molecule="CCN(CC)c1ccc(N2CC=CC34O[C@@H]5C=CCCOC(=O)C5[C@H]3C(=O)N(CCCCCCO)[C@@H]4C2=O)cc1 (stereo not given in full)" quantity_name=z-score reading=0.432
molecule=CC(C)NC(=O)[C@@H]1c2ccccc2C(=O)N(C2Cc3ccccc3C2)[C@H]1c1ccc(CO)cc1 quantity_name=z-score reading=3.83
molecule=COCCOC(=O)N1C(=O)[C@@]2(c3cc(C#CCC(C(=O)OC)C(=O)OC)ccc31)[C@H](C(=O)N1CCN(c3ncccn3)CC1)[C@H]1C(=O)O[C@H](c3ccccc3)[C@H](c3ccccc3)N1[C@@H]2c1ccccc1OCCO quantity_name=z-score reading=1.37
molecule=COC(=O)[C@@]1(Cc2ccc(OC)cc2)[C@H]2c3cc(C(=O)N(C)C)n(C)c3C[C@H]2CN1C(=O)c1ccccc1 quantity_name=z-score reading=2.66
molecule=C=CCN1C(=O)[C@@]2(CC=C)N=C(c3ccc(OCCCO)cc3)O[C@H]2c2ccccc21 quantity_name=z-score reading=1.62
molecule=CC(C)=CCN[C@H](CO)c1ccccc1 quantity_name=z-score reading=-0.416
molecule="CC1CC/C=C\\[C@H]2OC34C=CCN(C(C)(C)C)C(=O)[C@H]3N(C(C)CO)C(=O)[C@@H]4C2C(=O)O1 (stereo not given in full)" quantity_name=z-score reading=-0.0168
molecule="CN1C(=O)C2C=CC(C(O)C#Cc3ccccc3)N(N3CCCCC3)C2C1=O (stereo not given)" quantity_name=z-score reading=-0.242
molecule=O=C(NCCO)C1=C[C@H](Oc2ccccc2I)[C@@H](O)[C@H](N(Cc2ccco2)C(=O)Cc2ccccc2)C1 quantity_name=z-score reading=-0.217
molecule=COc1ccc(-c2cc3c(c(-c4ccc(Oc5ccccc5)cc4)n2)[Si](C(C)C)(C(C)C)OC3)cn1 quantity_name=z-score reading=-1.43
molecule=NCCCCCNC(=O)[C@@H]1C[C@@H]2C(=O)N[C@@H](Cc3ccccc3)C(=O)N2[C@@H]1c1ccc(O)cc1 quantity_name=z-score reading=0.181
molecule=COc1ccc(C#Cc2ccc3c(c2)[C@]2(C(=O)N3)[C@H](C(=O)NC[C@H](O)c3ccccc3)[C@H]3C(=O)O[C@H](c4ccccc4)[C@H](c4ccccc4)N3[C@@H]2c2ccc(O)cc2)cc1 quantity_name=z-score reading=-1.93
molecule=COC(=O)[C@H](Cc1ccccc1)N[C@@H](/C=C/C1CC1)[C@H](O)Cc1ccccc1 quantity_name=z-score reading=-0.908
